The measured values listed here are drawn from PubChem BioAssay AID1963832.

- System: 885724-159-R-J1-PDC complex spheroid viability;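 note: spheroids exposed to compounds for 7 days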
- Protocol Details: Anticancer human tumor 885724-159-R-J1-PDC patient-derived pancreatic adenocarcinoma cell line growth inhibition [POLQ]
- Conditions Used: second compound 3.16 µM; first compound 0.0316 µM; active compounds read low
Measured Metric: viability, T/C (%)
Your answer should be a plain number; it is taken to be in %.

Memo: CCc1cc2c(N3CCc4c(cc(Cn5ccnc5)cc4-c4cn(C)nc4C(F)(F)F)C3=O)cc(C)nc2c(OC)n1 + COC1C(OC(N)=O)C(O)C(Oc2ccc3c(O)c(NC(=O)c4ccc(O)c(CC=C(C)C)c4)c(=O)oc3c2C)OC1(C)C , reported viability, T/C: 80.3

Memo: COc1ccc([C@@H](O)c2cc(-c3ncnc4cc(N5CCOCC5)ccc34)c(F)cc2Cl)nn1 + Nc1ccc(C#CCN(C(=O)Cc2ncc(C(F)(F)F)cc2C(F)(F)F)c2ccc(F)cc2)nn1 , reported viability, T/C: 91.5

Memo: O=C(Nc1ccc(O)c(NS(=O)(=O)c2ccc(F)cc2)c1)c1ccc(-c2ccccc2)cc1 + COC1C(OC(N)=O)C(O)C(Oc2ccc3c(O)c(NC(=O)c4ccc(O)c(CC=C(C)C)c4)c(=O)oc3c2C)OC1(C)C , reported viability, T/C: 96.6
